Test system: Pyrenophora teres
Method Notes: Activity against net blotch Pyrenophora teres in the microtiter test
Assay type: cell-based
Test Context: relative growth vs active substance-free control (=100%), absorption 405 nm, day 7 after inoculation
// values below are reported Growth at 32 ppm (%)
Give the number; % is assumed, so skip it.

Check out these entries, answers already filled in.
>>> df
                                   molecule  unit_spec  reported_result
0  CCN1C(=O)C=C(Nc2ccccc2O)C1=O [drawing 58]          %               12
1  CCN1C(=O)C(Cl)=C(Nc2ccccc2O)C1=O [drawing 57]          %               15
2      CSC1=C(SC)C(=O)N(C)C1=O [drawing 56]          %                0

Kindly review the next molecule as well.
For this molecule ( CN1C(=O)C(Oc2ccccc2)=C(Oc2ccccc2)C1=O ), measured Growth at 32 ppm (%) is 1
